measurement-protocol: binders of probe aFSTL3 on microarray, primary screen, stem cell growth factor project, biochemical, small-molecule microarray, fluorescence 635/667 (AID 1064);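 further: measures binding of the biotinylated anti-FSTL3 antibody to printed compounds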
condition-set: higher = more signal
readout: composite z-score
I only need the number, thanks.

Past entries and their recorded results:
compound | composite z-score
COCCOC(=O)N1C(=O)[C@@]2(c3cc(C#Cc4ccc(OC)cc4)ccc31)[C@H](c1ccccc1OCCO)N1[C@H](c3ccccc3)[C@H](c3ccccc3)OC(=O)[C@H]1[C@@H]2C(=O)N1CCCCCCC1 | 3.55
COC(=O)c1nc2oc1CC[C@@H](CO)NC(=O)N(C)Cc1cnnn1C[C@H](Cc1ccccc1)NC2=O | -0.195
Cc1ccc(S[C@]2(C(=O)NCC(F)(F)F)CC(=O)N(Cc3ccccc3C(F)(F)F)[C@@H]2c2ccc(CO)cc2I)cc1 | 0.52

Attention now shifts to the item below.
Query string: Need composite z-score of CC=CC(O)C1C=CC2C(=O)N(c3ccccc3)C(=O)C2N1Nc1ccccc1F (centres undefined) , thanks.
Result string: 0.968

----------
measurement-protocol: fission yeast growth modulation, primary screen, strain 972, OD600, 24 h, no modulator (AID 1090);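 further: basal condition with compound alone and no growth modifier present; test concentration not given here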
condition-set: S. pombe 972 growth, called active from +8 up or from −8 down
Active and inactive are the calls of the source.
Result category, one only: active, inactive

Query string: Tell me the recorded outcome of this test for CC(CO)N1C(=O)[C@@H]2[C@H]3C(=O)OCC=C[C@H]3OC23C=CCN(Cc2ccccc2)C(=O)[C@@H]13 (stereo partly drawn) .
Result string: inactive

Query string: Assay outcome for CCCCCCCCCCC(O)C1C=CC2C(=O)N(C)C(=O)C2N1NC(=O)OC(C)(C)C (stereo not drawn) : what was it?
Result string: active

Query string: Outcome logged for `[N-]=[N+]=Nc1ccccc1[C@H]1OC(c2ccc(OCCCO)cc2)=N[C@@]1(Cc1ccccc1)C(=O)N1CCCCC1` in this assay:
Result string: inactive

Query string: Can you look up the reported call for C[C@H]1NC(=O)[C@@]23C(=O)N[C@@H](Cc4ccccc4)C2[C@H](C)[C@@]2(C)O[C@H]2C3/C=C/C/C=C\CNC(=O)[C@H](Cc2ccccc2)NC1=O (stereo partly drawn) for me?
Result string: inactive

Query string: Recorded test call requested for `C=CCN1C(=O)[C@@]2(CCS(=O)(=O)c3ccccc3)N=C(c3ccc(OCCCO)cc3)O[C@H]2c2ccccc21`
Result string: inactive

Query string: Assay result, entry Cn1cccc1C(O)C1C=CC2C(=O)NC(=O)C2N1Nc1ccc(Cl)cc1Cl (stereo not drawn) — outcome?
Result string: inactive

Query string: Per the records of this test, what outcome belongs to `CCCCCCc1nc(-c2cc(C)c(OC)c(C)c2)c(C)c2c1[Si](C(C)C)(C(C)C)OC2` ?
Result string: inactive

Query string: I would be grateful if you could indicate the recorded call for `C[N+](C)(C)CCCCCCNC(=O)[C@H]1C[C@H]2C(=O)NCC(=O)N2[C@H]1c1ccc(O)cc1` .
Result string: inactive

----------
Items are presented alongside their recorded z-score.
measurement-protocol: cell viability in Huh7 cells, primary screen, cytotoxicity control for HCV replication inhibitor project, CellTiter-Glo luminescence, basal, 48 h (AID 1143);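 further: Huh7 hepatoma cells carrying a hepatitis C replication reporter with no stimulus; test concentration not given here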
condition-set: Huh7 HCV replicon, higher = more signal, called active from +8 up or from −8 down
The reply should be a number, written without any unit.

Query string: What value of measured z-score is listed for C=C(C)C1CCC(C(O)C2C=CC3C(=O)N(C)C(=O)C3N2N2CCCCC2)CC1 (centres undefined) ?
Result string: 0.635

Query string: Could you tell me which z-score is on file for `COc1ccc([Si](C)(C)[C@@H]2[C@@H](CCO)O[C@]3(C(=O)N(Cc4ccc(N5CCCCC5=O)cc4)c4ccccc43)[C@H]2C)cc1` ?
Result string: -7.34

Query string: Recorded z-score for `COC(=O)[C@@]1(Cc2ccccc2)[C@H]2c3cc(C(=O)N(C)C)n(Cc4c(CO)[nH]cc(C)c4=O)c3C[C@H]2CN1C(=O)c1ccccc1` , please?
Result string: 0.229

Query string: Give the measured z-score of `NC(=O)NCC#Cc1ccc2c(c1)[C@]1(C(=O)N2)[C@H](C(=O)O)[C@H]2C(=O)O[C@H](c3ccccc3)[C@H](c3ccccc3)N2[C@@H]1c1ccc(OCCO)cc1` .
Result string: -0.175

// data source = PubChem BioAssay
